All figures here come from ChEMBL document CHEMBL1139227.

- assayTarget: cGMP-inhibited 3',5'-cyclic phosphodiesterase 3B (Homo sapiens, UniProt Q13370)
- Sequence (Q13370 whole entry): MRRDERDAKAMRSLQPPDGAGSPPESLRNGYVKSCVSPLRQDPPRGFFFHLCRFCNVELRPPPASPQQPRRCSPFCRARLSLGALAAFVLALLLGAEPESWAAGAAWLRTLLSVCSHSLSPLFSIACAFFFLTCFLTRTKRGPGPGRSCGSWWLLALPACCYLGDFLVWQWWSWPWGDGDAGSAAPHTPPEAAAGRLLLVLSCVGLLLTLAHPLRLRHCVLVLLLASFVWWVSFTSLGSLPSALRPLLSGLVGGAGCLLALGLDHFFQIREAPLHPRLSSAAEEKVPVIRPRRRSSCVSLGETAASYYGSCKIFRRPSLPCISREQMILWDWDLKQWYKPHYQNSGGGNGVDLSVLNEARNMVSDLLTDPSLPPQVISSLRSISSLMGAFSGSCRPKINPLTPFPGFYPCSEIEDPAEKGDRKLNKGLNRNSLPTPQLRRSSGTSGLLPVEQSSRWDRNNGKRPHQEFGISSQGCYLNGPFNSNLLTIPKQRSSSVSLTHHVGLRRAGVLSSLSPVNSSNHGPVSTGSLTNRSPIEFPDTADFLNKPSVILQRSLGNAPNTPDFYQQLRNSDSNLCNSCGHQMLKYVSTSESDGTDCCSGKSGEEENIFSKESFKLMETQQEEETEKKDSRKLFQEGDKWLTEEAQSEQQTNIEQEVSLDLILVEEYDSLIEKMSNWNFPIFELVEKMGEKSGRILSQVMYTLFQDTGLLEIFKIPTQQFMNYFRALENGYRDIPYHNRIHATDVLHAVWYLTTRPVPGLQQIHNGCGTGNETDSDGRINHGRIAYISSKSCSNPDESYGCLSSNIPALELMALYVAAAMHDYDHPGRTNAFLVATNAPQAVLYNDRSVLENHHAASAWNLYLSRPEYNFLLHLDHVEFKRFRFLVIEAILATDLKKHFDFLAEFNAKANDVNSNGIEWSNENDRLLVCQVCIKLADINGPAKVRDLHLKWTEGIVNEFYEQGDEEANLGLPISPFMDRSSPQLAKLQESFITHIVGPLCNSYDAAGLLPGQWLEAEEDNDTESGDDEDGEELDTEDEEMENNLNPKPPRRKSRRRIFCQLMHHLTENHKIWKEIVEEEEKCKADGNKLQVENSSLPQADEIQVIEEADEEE
- assayRemarks: Inhibition of human recombinant PDE3B transfected in Sf9 cells by SPA
pKi: −log10 of the molar value.
reportedEndpoint: pKi

Record pKi for all entries; do not skip any.
1. COc1cc2ncnc(N3CC[C@@H](Oc4ccccc4Cl)C3)c2cc1OC
2. COc1cc2ncnc(N3CC[C@@H](Oc4ccccc4C)C3)c2cc1OC
3. COc1cc2ncnc(N3CC[C@@H](Oc4ccccc4C(F)(F)F)C3)c2cc1OC

["> 7.00", "> 7.00", "< 7.00"]

Find the recorded pKi belonging to `COc1cc2ncnc(N3CC[C@H](Oc4ccccc4OC)C3)c2cc1OC` and report it.
< 7.00
